Cited source for all entries: patent US10131652B2

test system: kochia (Kochia scoparia); test: Test D postemergence plant response; format: in vivo; details: Bassia scoparia, post-emergence, 62 g ai/ha, scale 0 to 100, 0 no effect, 100 complete control, read-out: Plant response rating, Kochia
pest or weed control at 62 g/ha values by entry
Write it as a number; the unit % goes unstated.

Example entries and their recorded answers appear below.
                      smiles_representation  measured
0  Fc1cccc(Oc2ncc(Cl)cn2)c1-c1cc(C(F)(F)F)on1       100
1      FC(F)c1cc(-c2ccccc2Oc2ncc(Cl)cn2)no1       100
2   FC(F)(F)c1cc(-c2ccccc2Oc2ncc(Cl)cn2)no1       100

# input for lookup
input: Which pest or weed control at 62 g/ha is reported for this molecule? `FC(F)(F)c1cc(-c2ccccc2Oc2ncc(Cl)cn2)on1`
output: 98

---

test system: soybean (Glycine max); assay: Test D pre-/postemergence plant response; type: in vivo; conditions: Postemergence, 31 g ai/ha; scale 0 to 100 (0 no effect, 100 complete control)
Known Soybean plant response rating of a selection of compounds
Answer with a bare number; do not write a unit.

Consider the following illustrative entries.
>>> print(df.to_string())
                      smiles_representation                  quantity_name  measured
0  FC(F)c1cc(-c2c(Cl)cccc2Oc2ncc(Cl)cn2)no1  Soybean plant response rating        45
1   CC(F)(F)c1cc(-c2ccccc2Oc2ncc(Br)cn2)no1  Soybean plant response rating        40
2  FC(F)c1cc(-c2c(Cl)cccc2Oc2ncc(Br)cn2)on1  Soybean plant response rating        60
3          Cc1cc(-c2ccccc2Oc2ncc(Cl)cn2)no1  Soybean plant response rating        65
4  Fc1ccc(Oc2ncc(Cl)cn2)c(-c2cc(C(F)F)on2)c1F  Soybean plant response rating        55

input: Please look up its Soybean plant response rating: `FC(F)c1cc(-c2ccccc2Oc2ncc(Br)cn2)on1`
output: 70

input: Which measured Soybean plant response rating value corresponds to `FC(F)(F)c1cc(-c2c(I)cccc2Oc2ncc(Cl)cn2)no1` ?
output: 25

input: Record request: Soybean plant response rating value, item `N#Cc1cccc(Oc2ncc(Cl)cn2)c1-c1cc(C(F)F)on1`
output: 60

input: What value of measured Soybean plant response rating is listed for `FCc1cc(-c2c(Br)cccc2Oc2ncc(Cl)cn2)no1` ?
output: 65

---

Reported values of pest or weed control at 125 g/ha for individual entries
system: pigweed (Amaranthus retroflexus); assay: Test D pre-/postemergence plant response; type: in vivo; settings: Amaranthus retroflexus, post-emergence; Postemergence, 125 g ai/ha; scale 0 to 100, 0 no effect, 100 complete control; read-out: Plant response rating, Pigweed
Just the number in %, nothing appended.

>>> print(df.to_string())
                                   compound  measured
0  Fc1cccc(Oc2ncc(Cl)cn2)c1-c1cc(C(F)(F)F)on1 [Compound 168]        98
1  FC(F)c1cc(-c2ccccc2Oc2ncc(Cl)cn2)on1 [Compound 53]       100
2  FC(F)(F)c1cc(-c2ccccc2Oc2ncc(Cl)cn2)on1 [Compound 63]        95
3  FC(F)c1cc(-c2ccccc2Oc2ncc(Br)cn2)no1 [Compound 62]       100

Now let's try a different one.
input: What pest or weed control at 125 g/ha value was documented for this compound, Fc1cccc(Oc2ncc(Cl)cn2)c1-c1cc(C(F)F)no1 [Compound 144] ?
output: 100
